- Tested on: Fer (mouse);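 also: 11-residue human phosphosite peptides and single-mutation variants displayed on the E. coli surface, counted by deep sequencing, each peptide's frequency after selection divided by its frequency in the unselected input library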;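 also: frequency after pTyr selection over input frequency; kinase dosed for 20-30% of maximal phosphorylation in three min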
- experimentalDetails: phosphorylation enrichment, bacterial display (enrichment ratio); higher = better substrate or ligand; peptides without Tyr show the background
readoutKind: phosphorylation enrichment
Respond numerically, and do not add a unit to the figure.

Some sequences with recorded phosphorylation enrichment:
# chainSequence, obsValue
measured = [
    ("MKGDYYRSLAE [YWHAG_Y131_Y133S]", 0.426),
    ("GGGMFYPLDLF", 0.405),
    ("EACRSYSHVVL [CHST6_Y168]", 0.824),
]

Entry EEGNPYFSGAR [MCCC2_Y520_S523G_YF] , Fer (mouse) data, phosphorylation enrichment value: 0.347

Entry INPIIYAFVVE [CCR5_Y297_G301V] , Fer (mouse) data, phosphorylation enrichment value: 2.66

Entry WEQELYSQLVY [WAS_Y102] , Fer (mouse) data, phosphorylation enrichment value: 15.7

Entry LNCDRYSVGLL [PDE6A_Y275] , Fer (mouse) data, phosphorylation enrichment value: 0.898

Entry EDGCIYPGTIA [SMN1_Y109_A111G] , Fer (mouse) data, phosphorylation enrichment value: 0.555

Entry AESPEHVHMFT [FAM111A_Y511_Y511H_YF] , Fer (mouse) data, phosphorylation enrichment value: 0.431

Entry NAGDYYDLYGG [PTPN11_Y63_T59A] , Fer (mouse) data, phosphorylation enrichment value: 2.53

Entry HLWRIYYDITD [MMP27_Y307] , Fer (mouse) data, phosphorylation enrichment value: 1.64

Entry PESIPYRKFTT [NTRK1_Y701_L700P] , Fer (mouse) data, phosphorylation enrichment value: 0.353

Entry GLIPAYHWVIM [NMNAT1_Y64_R66W] , Fer (mouse) data, phosphorylation enrichment value: 5.52

Entry SNMPTYSGHFT [GRIN2A_Y1224] , Fer (mouse) data, phosphorylation enrichment value: 3.39
